Please provide measured O2 permeability for the entries that follow.
One number for each entry, in Barrer.

Example entries begin here.
| compound | O2 permeability (Barrer) |
| --- | --- |
| *CC(*)O (repeat unit) | 7e-07 |
| *Nc1ccc(Cc2ccc(NC(=O)CN3C(=O)c4ccc(C(*)=O)cc4C3=O)cc2)cc1 (repeat unit) | 0.065 |
| *c1ccc(-c2ccc(-n3c(=O)c4cc5oc6cc7c(cc6oc5cc4c3=O)C3(CC(C)(C)c4cc5oc6cc8c(=O)n(*)c(=O)c8cc6oc5cc43)CC7(C)C)cc2C(F)(F)F)c(C(F)(F)F)c1 (repeat unit) | 64 |
| *c1ccc(Oc2ccc(N3C(=O)c4cc5c(cc4C3=O)S(=O)(=O)c3cc4c(cc3S5(=O)=O)C(=O)N(*)C4=O)cc2)cc1 (repeat unit) | 1.6 |
| *c1c(C)c(C)c(N2C(=O)c3ccc(Oc4cc(C)ccc4Oc4ccc5c(c4)C(=O)N(*)C5=O)cc3C2=O)c(C)c1C (repeat unit) | 3.5 |
| *C(=C(*)c1ccc(-c2ccc([Si](C)(C)C)cc2)cc1)c1ccccc1 (repeat unit) | 390 |
| *c1c(C)cc(Cc2cc(C)c(N3C(=O)c4ccc(-c5ccc6c(c5)C(=O)N(*)C6=O)cc4C3=O)c(C)c2)cc1C (repeat unit) | 4.73 |
| *c1cc(C(c2ccc(O)c(N3C(=O)c4cc5c(cc4C3=O)C3(C)c4ccccc4C5(C)c4cc5c(cc43)C(=O)N(*)C5=O)c2)(C(F)(F)F)C(F)(F)F)ccc1O (repeat unit) | 7.45 |
| *CC(*)c1ccc(Br)cc1 (repeat unit) | 1.9 |
| *c1cccc(N2C(=O)c3ccc(C(=O)c4ccc5c(c4)C(=O)N(*)C5=O)cc3C2=O)c1 (repeat unit) | 0.112 |

Your task in this section: give O2 permeability for each listed record.
1. *c1ccc(Cc2ccc(N3C(=O)c4ccc(C(c5ccc6c(c5)C(=O)N(*)C6=O)(C(F)(F)F)C(F)(F)F)cc4C3=O)c(Cl)c2)cc1Cl (repeat unit)
2. *CC(*)(Cl)Cl (repeat unit)
3. *c1ccc(-c2cc(C)c(-c3ccc(*)c(C)c3)cc2C)cc1C (repeat unit)
4. */C(C)=C(/*)[Si](C)(C)c1ccccc1 (repeat unit)
5. *Oc1cc(C)c(C2(c3cc(C)c(Oc4ccc(S(=O)(=O)c5ccc(*)cc5)cc4)cc3C)OC(=O)c3ccccc32)cc1C (repeat unit)

Response line:
1. 1.81
2. 0.00519
3. 8.6
4. 4.4
5. 1.55

Your task in this section: give O2 permeability for each listed record.
1. *CC(*)C#N (repeat unit)
2. *c1c(C)c(C)c(N2C(=O)c3ccc(Oc4c(C)cccc4Oc4ccc5c(c4)C(=O)N(*)C5=O)cc3C2=O)c(C)c1C (repeat unit)
3. *CC=C(C*)[Si](C)(C)OC(C)C (repeat unit)

Response line:
0.00028
4.8
6

Your task in this section: give O2 permeability for each listed record.
1. *=CC1CC(C=*)C2C(=O)N(C3CCCC3)C(=O)C12 (repeat unit)
2. */C(C)=C(/*)[Si](C)(C)CC (repeat unit)
3. *Oc1c(C)cc(C(C)(C)c2cc(C)c(Oc3ccc(C(=O)c4ccc(*)cc4)cc3)c(C)c2)cc1C (repeat unit)
4. *c1c(C)cc(-c2cc(C)c(-n3c(=O)c4cc5oc6cc7c(cc6oc5cc4c3=O)C3(CC(C)(C)c4cc5oc6cc8c(=O)n(*)c(=O)c8cc6oc5cc43)CC7(C)C)c3ccccc23)c2ccccc12 (repeat unit)
5. *Oc1ccc(C(C)(C)c2ccc(OCCC(*)O)cc2)cc1 (repeat unit)
6. *c1ccc(Oc2ccc(C(c3ccc(Oc4ccc(N5C(=O)c6ccc(C(c7ccc8c(c7)C(=O)N(*)C8=O)(C(F)(F)F)C(F)(F)F)cc6C5=O)cc4)cc3)(C(F)(F)F)C(F)(F)F)cc2)cc1 (repeat unit)

Response line:
1. 1.95
2. 970
3. 5.6
4. 432
5. 0.09
6. 5.27
